Each entry below carries its reported TGI.
# Tested on: ACHN renal
# procedure_details: NCI tumour cell line growth inhibition, 48 h

Solved cases below.
compound: OCc1cn(Cc2cccc(Cl)c2)c2ccccc12
TGI: 69.2 µM
//
compound: Cc1ccccc1-c1c(N)nc(NC#N)nc1C(=O)Nc1ccccc1
TGI: > 100 µM
//
compound: COc1ccc(Nc2nc(NNC(=O)Cc3ccccc3)nc(NNC(=O)c3ccncc3)n2)cc1
TGI: > 10 µM
//
compound: CC1OC(n2ncc(=O)[nH]c2=O)C=CC1=O (stereo unspecified)
TGI: > 100 µM
//
compound: CCCC(CC)c1cc(O)c(O)cc1C(CC)CCC (stereo unspecified)
TGI: > 10 µM
//
compound: CC1=C(/C=C/C(C)=C\C=C\C(C)=C\C(=O)Nc2ccc3c(c2)OCO3)C(C)(C)CCC1
TGI: > 100 µM

[in] Please look up its TGI: `CCC(=O)Nc1ccc(N2C(=O)/C(=C/c3ccc(O)c(OC)c3)N=C2c2ccccc2)cc1`
[out] 89.9 µM

[in] Then this compound: CN1CCCC(OC(=O)c2cc3cc(CCl)ccc3oc2=O)C1 (stereo unspecified)
[out] 51.1 µM

[in] Then this compound: `O=C(NCCNCCO)N/N=C/c1ccccc1`
[out] > 100 µM

[in] Then this compound: O=C1CCC(Cc2ccc(Cl)cc2Cl)C(=O)N1 (stereo unspecified)
[out] > 100 µM

[in] Then this compound: COCCN(C(=O)c1ccccc1)C1CCC(=O)c2[nH]c3ccccc3c21 (stereo unspecified)
[out] 30.4 µM
